Test system: Escherichia coli OTEM
experiment-summary: In vitro anti-bacterial activity test (MIC, two-fold dilution method) against the standard strains
Type: cell-based
test-conditions: Table 1 strain 10: Escherichia coli OTEM
Please note: MIC exactly at 0.03 µg/mL is false (0). Only values below 0.03 µg/mL get true (1).

Use these answered entries as a reference point.
> print(dat)
                                   compound  qualitative.label
1  NC1CC12CCN(c1c(F)cc3c(=O)c(C(=O)O)cn(C4CC4)c3c1F)C2 (stereo not shown)           true (1)
2  CC(O)C(=O)O.NC1CC12CCN(c1c(F)cc3c(=O)c(C(=O)O)cn(C4CC4)c3c1Cl)C2 (stereo not shown)           true (1)
3  CC(O)C(=O)O.NC1CC12CCN(c1c(F)cc3c(=O)c(C(=O)O)cn(C4CC4)c3c1F)C2 (stereo not shown)           true (1)
4  CNC1CC12CCN(c1c(F)c(N)c3c(=O)c(C(=O)O)cn(C4CC4)c3c1F)C2 (stereo not shown)          false (0)
5  NC1CC12CCN(c1nc3c(cc1F)c(=O)c(C(=O)O)cn3C1CC1)C2 (stereo not shown)           true (1)

Dear reviewer, please state whether CC1COc2c(N3CCN(C)CC3)c(F)cc3c(=O)c(C(=O)O)cn1c23 (stereo not shown) [Ofloxacin, ofloxacin, reference compound] has MIC strictly beneath 0.03 µg/mL. false (0)

Item COc1c(N2CCC3(CC3N)C2)c(F)cc2c(=O)c(C(=O)O)cn(C3CC3)c12 (stereo not shown) : MIC beneath 0.03 µg/mL, strictly? false (0)
